Value source: PubChem BioAssay (NCI)

test system: MDA-MB-231 breast; test: NCI tumour cell line growth inhibition, 48 h
# maps each entry to its TGI
reported-property: TGI

compound="CC(C)(C)OC(=O)C1CCC/C1=N/Nc1ccc([N+](=O)[O-])cc1[N+](=O)[O-] (stereo not given)" reported_property=TGI reported="> 100 µM"
compound=CNC(=O)c1ccccc1Nc1cc(Nc2ccc(N3CCOCC3)cc2OC)ncc1C(F)(F)F reported_property=TGI reported="47.1 µM"
compound=CCOC(=O)C(COS(C)(=O)=O)(COS(C)(=O)=O)C(=O)OCC reported_property=TGI reported="> 100 µM"
compound="CCOC(=O)C1=C(C)NC(=O)NC1c1ccc(N(CCCl)CCCl)cc1Cl (stereo not given)" reported_property=TGI reported="26.5 µM"
compound=CCOC(=O)CCc1cccc2c1oc1c(CCNC(=O)OCC3c4ccccc4-c4ccccc43)cccc12 reported_property=TGI reported="> 100 µM"
compound="CC(C)=CCNc1ncnc2c1c(C#N)cn2C1OC(CO)C(O)C1O (stereo not given)" reported_property=TGI reported="> 100 µM"
compound="COC1=CC(=O)N(C(=O)C2CSC(C(CO)NC(=O)c3csc(/C=N/O)n3)=N2)C1 (stereo not given)" reported_property=TGI reported="> 100 µM"
compound=COc1ccc2[nH]c3c(C)c4ccncc4c(C)c3c2c1 reported_property=TGI reported="1.87 µM"
compound=N#Cc1c(N)c2c(c(-c3ccccc3)c1-c1ccccc1)C(=O)N(N)C2=O reported_property=TGI reported="> 100 µM"
compound="CC(=O)OC1CN2CCC1CC2 (stereo not given)" reported_property=TGI reported="> 100 µM"
compound=O=S(=O)(c1ccc(Cl)cc1)c1ccccc1C1=NCCN1 reported_property=TGI reported="> 100 µM"
compound=O=[N+]([O-])c1ccc2c(c1)c1nn2CCCCOc2nn(c3ccc([N+](=O)[O-])cc23)CCCCO1 reported_property=TGI reported="> 100 µM"
compound=CSc1nc(-c2cc3ccccc3o2)cc(-c2ccc(Cl)cc2)c1C#N reported_property=TGI reported="50 µM"
compound=O=C1C=CC(=O)C(CNc2ccc(C(=O)OC34CC5CC(CC(C5)C3)C4)cc2)=C1Br reported_property=TGI reported="24.3 µM"
compound=CCCC[C@H](NC(=O)[C@H]1CCCCN1C)C(=O)N(C)[C@H](C[C@@H](OC(C)=O)c1nc(C(=O)N[C@@H](Cc2ccccc2)C[C@H](C)C(=O)OCC)cs1)C(C)C reported_property=TGI reported="0.341 µM"
compound=CC(C)(C)/C(O)=C\c1nc2ccc(C(F)(F)F)cc2[nH]c1=O reported_property=TGI reported="> 100 µM"
compound=Clc1cc(OC23CC4CC(CC(C4)C2)C3)nc(Cl)n1 reported_property=TGI reported="> 100 µM"
compound=O=c1[nH]c(=O)n(COCCOCc2ccccc2)cc1Nc1ccccc1 reported_property=TGI reported="> 100 µM"
compound=Clc1ccc(COc2ccccc2/C=N/c2c(-c3ccco3)nc3ccccn23)c(Cl)c1 reported_property=TGI reported="52.6 µM"
compound=O=C(c1ccc(Cl)cc1)N(C(=S)OC12CC3CC(CC(C3)C1)C2)c1ccccc1 reported_property=TGI reported="> 100 µM"

====

system: SN12C renal; assay: NCI tumour cell line growth inhibition, 48 h; in the data active = GI50 below about 0.43 µM; inactive = the rest
Classes used: active, inactive

compound=O=C1Nc2ccccc2/C1=C\c1c(-c2ccccc2)nc2ccccn12 measured_on="SN12C renal" label=inactive
compound=Nc1ccc(S(=O)(=O)c2ccc(N)cc2)cc1 measured_on="SN12C renal" label=inactive
compound=C1C[OH+]CC[OH+]CC[OH+]CC[OH+]CC[OH+]CC[OH+]1.[Cl-].[V] measured_on="SN12C renal" label=inactive
compound=C[C@]12CC[C@@H]3c4ccc(O)cc4CC[C@H]3[C@@H]1CC[C@@H]2NS(=O)(=O)c1ccc(Cl)cc1 measured_on="SN12C renal" label=inactive
compound=O=C1/C(=C/c2ccccc2)CN(C(=O)CCN2CCC(=NO)CC2)C/C1=C\c1ccccc1 measured_on="SN12C renal" label=inactive
compound=O=C(Cc1n[nH]c(=O)c2ccccc12)OCc1c(Cl)cccc1Cl measured_on="SN12C renal" label=inactive
compound=Clc1ccc2c(N3CCN(c4ccnc(NC5CCCCC5)n4)CC3)ccnc2c1 measured_on="SN12C renal" label=inactive
compound=CSc1nc(-c2cc3ccccc3o2)cc(-c2ccc(Cl)cc2)c1C#N measured_on="SN12C renal" label=inactive
compound=O=C(c1ccc(Cl)c(Cl)c1)N1CCN(C(=O)c2ccc(Cl)c(Cl)c2)C1=S measured_on="SN12C renal" label=inactive
compound=COc1cc(-c2nccn2-c2ccc3ccccc3c2)cc(OC)c1OC measured_on="SN12C renal" label=inactive
compound=COc1ccc2c(c1)/C(=N/OC(C)=O)c1c-2c(Nc2cccc(/C(C)=N/OC(C)=O)c2)nc2ccccc12 measured_on="SN12C renal" label=inactive
compound=NC(N)=NN=C(c1ccccc1)c1ccccc1 measured_on="SN12C renal" label=inactive
compound="COc1cccc2c1C(=O)c1c(O)c3c(c(O)c1C2=O)C[C@@](O)(C(=O)CO)C[C@@H]3OC1CC2C(OCN3CN2COC2C(C)OC(O[C@H]4C[C@](O)(C(=O)CO)Cc5c(O)c6c(c(O)c54)C(=O)c4c(OC)cccc4C6=O)CC23)C(C)O1 (stereo partly drawn)" measured_on="SN12C renal" label=active

====

# maps each entry to its TGI
test system: 786-0 renal; assay: NCI tumour cell line growth inhibition, 48 h
reported-property: TGI

molecule=Cc1ccc(C(=O)N/N=C(\N=Nc2cccc([N+](=O)[O-])c2)c2ccc(N(C)C)cc2)cc1 measured_on="786-0 renal" reported_property=TGI reported="> 100 µM"
molecule=O=C(Nc1ccc(Cl)cc1)c1cc2c(cc1Cl)SC(NNCCO)=NS2(=O)=O measured_on="786-0 renal" reported_property=TGI reported="> 100 µM"
molecule="COC(=O)C1C(OS(=O)(=O)O)CCC2CN3CCc4c([nH]c5ccccc45)C3CC21 (centres undefined)" measured_on="786-0 renal" reported_property=TGI reported="> 100 µM"
molecule=COc1cccc(C2=C(c3cn(C)c4ccc(Cl)cc34)C(=O)NC2=O)c1 measured_on="786-0 renal" reported_property=TGI reported="> 18.9 µM"
molecule=COc1ccc2cc(C#Cc3ccc(-n4c(/C=C/c5cc(OC)c(OC)c(OC)c5)nc5ccccc5c4=O)c(C)c3)ccc2c1 measured_on="786-0 renal" reported_property=TGI reported="> 100 µM"
molecule=CCOC(=O)C1=c2[nH]c3cccc4cccc(c43)n2C(=O)CC1 measured_on="786-0 renal" reported_property=TGI reported="> 100 µM"
molecule="CCC[CH2][Sn]1([CH2]CCC)[O]CC(CN2CCCCC2)[O]1 (centres undefined)" measured_on="786-0 renal" reported_property=TGI reported="1.01 µM"
molecule="COc1cc2c(c(O)c1OC)C(=O)C1CCC(=O)N1C2c1cccc2ccccc12 (centres undefined)" measured_on="786-0 renal" reported_property=TGI reported="> 100 µM"
molecule=COc1cc(/C=C(\NC(=O)c2ccccc2)c2nc3[nH]c(=S)[nH]c(=O)c3[nH]2)cc(OC)c1OC measured_on="786-0 renal" reported_property=TGI reported="> 100 µM"

====

test system: UACC-257 melanoma; assay: NCI tumour cell line growth inhibition, 48 h
# maps each entry to its GI50
reported-property: GI50

structure=COC1=C(OC)C(=O)C(CCCCCCCCCC[P+](c2ccccc2)(c2ccccc2)c2ccccc2)=C(C)C1=O reported="0.15 µM"
structure=O=C1Nc2ccccc2/C1=C\c1c(-c2ccccc2)nc2ccccn12 reported="8.96 µM"
structure=C[CH2][Sn]([CH2]C)([O]C(=O)c1ccccc1F)[O]C(=O)c1ccccc1F reported="32 µM"
structure=Nc1ccc(S(=O)(=O)c2ccc(N)cc2)cc1 reported="> 100 µM"
structure=CN[C@@H](C)C(=O)N[C@H]1CCS[C@H]2CC(C)(C)[C@@H](C(=O)N[C@H]3c4ccccc4C[C@H]3OCC#CC#CCO[C@@H]3Cc4ccccc4[C@@H]3NC(=O)[C@H]3N4C(=O)[C@@H](NC(=O)[C@H](C)NC)CCS[C@H]4CC3(C)C)N2C1=O reported="> 50 µM"
structure=OCCCCC#Cc1ccccc1C#Cc1ccccn1 reported="28.8 µM"
structure=CCOc1cc(F)c([N+](=O)[O-])cc1[N+](=O)[O-] reported="1.6 µM"

====

system: M14 melanoma; experiment: NCI tumour cell line growth inhibition, 48 h; in the data active = GI50 below about 0.43 µM; inactive = the rest
Classes used: active, inactive

compound=CC[C@H](C)[C@H](NC(=O)c1ccccn1)C(=O)N(C)[C@H](C[C@@H](OC(C)=O)c1nc(C(=O)N[C@@H](Cc2ccccc2)C[C@H](C)C(=O)OC)cs1)C(C)C label=inactive
compound=COc1ccc(-c2cn[nH]c2-c2cc(OC)c(OC)c(OC)c2)cc1OCc1ccccc1 label=inactive
compound=COc1ccc2[nH]c3c(C)c4ccncc4c(C)c3c2c1 label=active
compound=CNC(=O)c1ccccc1Nc1cc(Nc2ccc(N3CCOCC3)cc2OC)ncc1C(F)(F)F label=inactive
compound="Clc1ccc(C(Cn2ccnc2)OCc2ccsc2Cl)c(Cl)c1 (centres undefined)" label=inactive
compound=Nc1n[nH]c2cccc(C#Cc3cccc(NC(=O)c4ccc(N5CCOCC5)c(C(F)(F)F)c4)c3)c12 label=inactive
compound=COc1cccc(C2=C(c3cn(C)c4ccc(Cl)cc34)C(=O)NC2=O)c1 label=inactive
compound=O=C(Nc1ncc(Cc2ccccc2)s1)c1sc2ccccc2c1Cl label=inactive
compound=O=C(Nc1ccc2[nH]c3ccccc3c2c1)c1ccccc1Cl label=inactive
